For each entry below, report its CC50 at 72 h value.
# procedureDetails: Cytotoxicity against BHK21 cells assessed as reduction in cell viability after 72 hrs by MTT assay
# Assay type: cell-based, Mesocricetus auratus, BHK-21
# details: hamster

Enquiry: Given the entry "O=c1c(-c2ccccc2)nc2c(Cl)c3ncccc3cc2n1Cc1ccccc1" , report its measured CC50 at 72 h.
Return: > 100 µM

Enquiry: // query CC50 at 72 h value for entry "CC(C)c1nc2c(Cl)c3ncccc3cc2[nH]c1=O"
Return: > 100 µM

Enquiry: Would you mind telling me what CC50 at 72 h value was observed for "c1csc(-c2nc3cc4cccnc4cc3n2C2CCCCC2)c1" ?
Return: 45 µM

Enquiry: # lookup: CC50 at 72 h of "c1ccc(-c2nc3cc4cccnc4cc3n2C2CCCCC2)cc1"
Return: > 100 µM

Enquiry: Reported CC50 at 72 h for "O=c1c(-c2ccccc2)nc2cc3cccnc3c(Cl)c2n1C1CCCCC1" : what is it?
Return: > 100 µM

Enquiry: What value of CC50 at 72 h has been reported for the following compound? "Cn1c(=O)c(-c2cccs2)nc2c(Cl)c3ncccc3cc21"
Return: > 100 µM

Enquiry: Quick one: CC50 at 72 h for "c1ccc(Cc2nc3cc4cccnc4cc3n2CC2CCCCC2)cc1" ?
Return: 71 µM

Enquiry: Consider the compound shown here: "COc1nc2cc3cccnc3c(Cl)c2nc1-c1cccs1" What is its recorded CC50 at 72 h?
Return: > 100 µM

Enquiry: Requested read-out: CC50 at 72 h. Entry: "CCCn1c(-c2ccccc2)nc2cc3cccnc3cc21"
Return: > 100 µM

Enquiry: # CC50 at 72 h lookup, item "N#CCn1c(=O)c(-c2ccccc2)nc2c(Cl)c3ncccc3cc21"
Return: > 100 µM

Enquiry: Using the record for "COc1nc2cc3cccnc3c(Cl)c2nc1-c1ccccc1" , report its CC50 at 72 h.
Return: > 100 µM

Enquiry: CC50 at 72 h for "CCOc1nc2cc3cccnc3c(Cl)c2nc1-c1ccccc1" ?
Return: > 100 µM

Enquiry: Param item = "COc1nc2cc3cccnc3c(Cl)c2nc1Cc1ccccc1" ; retrieve measured CC50 at 72 h.
Return: > 100 µM

Enquiry: Need CC50 at 72 h, item "COc1nc2cc3cccnc3c(Cl)c2nc1C(C)C"
Return: > 100 µM

Enquiry: // returns reported CC50 at 72 h for input "O=c1[nH]c2cc3cccnc3c(Cl)c2nc1-c1cccs1"
Return: > 100 µM

Enquiry: Fill in: CC50 at 72 h of "O=c1c(Cc2ccccc2)nc2cc3cccnc3c(Cl)c2n1C1CCCCC1" is ___
Return: 20 µM

Enquiry: Need CC50 at 72 h, item "O=c1c(-c2ccccc2)nc2cc3cccnc3c(Cl)c2n1CC1CCCCC1"
Return: 15 µM

Enquiry: Reported CC50 at 72 h for "CCCn1c(=O)c(-c2ccccc2)nc2cc3cccnc3c(Cl)c21" : what is it?
Return: > 100 µM

Enquiry: // query CC50 at 72 h value for entry "O=c1c(-c2cccs2)nc2cc3cccnc3c(Cl)c2n1C1CCCCC1"
Return: > 100 µM

Enquiry: Using the record for "Cn1c(=O)c(Cc2ccccc2)nc2c(Cl)c3ncccc3cc21" , report its CC50 at 72 h.
Return: > 100 µM

Enquiry: Using the record for "O=[N+]([O-])c1ccc(COc2nc3cc4cccnc4c(Cl)c3nc2-c2ccccc2)cc1" , report its CC50 at 72 h.
Return: > 100 µM

Enquiry: Any idea what its CC50 at 72 h is? The compound is "CC(C)c1nc2c(Cl)c3ncccc3cc2n(C)c1=O"
Return: > 100 µM

Enquiry: Consider the compound shown here: C[C@@]1(O)[C@H](O)[C@@H](CO)O[C@H]1n1cnc2c(=O)[nH]c(N)nc21 [2'-B-METHYL-GUANOSINE] What is its recorded CC50 at 72 h?
Return: 1.1 µM
